Values compiled from ChEMBL document CHEMBL1201862.

system: SK-MEL-28; test: NCI tumour cell line growth inhibition, 48 h
Calls of active or inactive are those of the source. No stated cut-off is given here; in the data, active = GI50 up to about 1.1 µM and inactive = higher.
Outcomes: active, inactive

# Compound, System under test, Group
data = [
    ("O=C1C(Cl)N(c2cccc(Cl)c2)C1c1c[nH]c2ccccc12 (stereo unspecified)", "SK-MEL-28", "inactive"),
    ("COC(=O)C1=CCC2c3[nH]c4ccccc4c3CCN2C1 (stereo unspecified)", "SK-MEL-28", "inactive"),
    ("CCN(CC)CC[n+]1ccc2c(C)c3[nH]c4ccccc4c3c(C)c2c1", "SK-MEL-28", "active"),
    ("C/C=C(/CCCCNCCCC)[Si](C)(C)C", "SK-MEL-28", "inactive"),
    ("CC1OC2(CC(OCc3ccccc3)C1OCc1ccccc1)OCCO2 (stereo unspecified)", "SK-MEL-28", "inactive"),
    ("CCOC(=O)Nc1nn[nH]c1Cl", "SK-MEL-28", "inactive"),
]
